Target: catalytic domain of human PARP14 (Homo sapiens (Human), UniProt Q460N5)
Sequence (Q460N5 1611-1801): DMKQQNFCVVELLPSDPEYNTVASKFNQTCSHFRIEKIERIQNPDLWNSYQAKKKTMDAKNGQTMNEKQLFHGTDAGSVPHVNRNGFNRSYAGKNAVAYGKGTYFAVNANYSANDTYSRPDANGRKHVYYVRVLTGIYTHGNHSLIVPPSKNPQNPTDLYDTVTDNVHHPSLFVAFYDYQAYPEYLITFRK
Assay: Enzymatic assay for inhibition of PARP14 (DELFIA, auto-modification with biotin-NAD)
Conditions: auto-modification of PARP14 by biotin-NAD, 50 nM PARP14, 3 μM biotin-NAD
pIC50: −log10 of the molar value. Structures can show the parent of a compound that is named as a salt.
Quantity measured: pIC50

>>> result("Cc1cccc2c(=O)[nH]c(CS[C@H]3CCC[C@@H](CO)C3)nc12 (relative stereo)")
"5.00 to 6.00"
>>> result("O=c1[nH]c(CS[C@H]2CC[C@H](CO)CC2)nc2cc(Nc3cccnc3)ccc12")
"> 6.00"
>>> result("O=c1[nH]c(CSC2CCNCC2)nc2cc(OCC3CC3)ccc12")
"> 6.00"
>>> result("Cc1cccc2c(=O)[nH]c(CS[C@H]3C[C@H](O)C3)nc12")
"5.00 to 6.00"
>>> result("O=c1[nH]c(CSC2CCOCC2)nc2cc(OC3CCCC3)ccc12")
"> 6.00"

Observed pIC50, catalytic domain of human PARP14 (Homo sapiens (Human), UniProt Q460N5), CC(F)(F)CN1CCC(SCc2nc3cc(NC4CCCC4)ccc3c(=O)[nH]2)CC1 : > 6.00

The reported catalytic domain of human PARP14 (Homo sapiens (Human), UniProt Q460N5) pIC50 of CC(C)(O)C(=O)N1CCC(SCc2nc3cc(NC4CCCC4)cc(F)c3c(=O)[nH]2)CC1 is > 6.00

Note to self: pIC50 of Cc1cccc2c(=O)[nH]c(CSC3CCN(C(=O)[C@@H](N)CCCCN)CC3)nc12 [Example 171, Dihydrochloride] with catalytic domain of human PARP14 (Homo sapiens (Human), UniProt Q460N5) was > 6.00

###

Target: catalytic domain of human PARP14 (Homo sapiens (Human), UniProt Q460N5)
Assay: Enzymatic assay for inhibition of PARP14 (DELFIA, auto-modification with biotin-NAD)
Settings: auto-modification of PARP14 by biotin-NAD, 50 nM PARP14, 3 μM biotin-NAD
pIC50: −log10 of the molar value. Where a name gives a salt, the structure may show the parent alone.
We begin with a simple list: items and their reported pIC50.

Before answering, review these 3 worked examples.
>>> result("CS(=O)(=O)N1CCC[C@@H](Nc2cc(F)c3c(=O)[nH]c(CSC4CCOCC4)nc3c2)C1 [Example 250]")
"> 6.00"
>>> result("CS(=O)(=O)CCN1CCC(SCc2nc3cc(NC4CCCC4)cc(F)c3c(=O)[nH]2)CC1 [Example 276]")
"> 6.00"
>>> result("Cc1cccc2c(=O)[nH]c(CS[C@H]3CC[C@H](N)CC3)nc12 [Example 49, Hydrochloride]")
"5.00 to 6.00"

The compound identified as CN1CC[C@@H](COc2cc(F)c3c(=O)[nH]c(CS[C@H]4CC[C@H](O)CC4)nc3c2)[C@H](F)C1 [Example 335a] registered its pIC50 at > 6.00

###

Target: catalytic domain of human PARP14 (Homo sapiens (Human), UniProt Q460N5)
Experiment: Enzymatic assay for inhibition of PARP14 (DELFIA, auto-modification with biotin-NAD)
Conditions: auto-modification of PARP14 by biotin-NAD, 50 nM PARP14, 3 μM biotin-NAD
Method: An N-terminal His-TEV fusion tag was used to purify the protein from cell lysates. The His-TEV tag was left on the protein for use in the enzymatic assay. Enzymatic inhibition of PARP14 was measured using a dissociation-enhanced lanthanide fluorescence immunoassay (DELFIA) monitoring the auto-modification of PARP14 by biotinylated nicotinamide adenine dinucleotide (biotin-NAD). […]
# key: entry, value: IC50

Below are worked cases with known answers.
>>> result("O=c1[nH]c(CSC2CCOCC2)nc2cc(N3CCOCC3)ccc12")
"1000 to 10000 nM"
>>> result("CC(=O)N1CCCC(Nc2ccc3c(=O)[nH]c(CSC4CCOCC4)nc3c2)C1 (centres unmarked)")
"> 10000 nM"
>>> result("CS(=O)(=O)N1CCC[C@@H](Nc2ccc3c(=O)[nH]c(CSC4CCNCC4)nc3c2)C1")
"< 1000 nM"

Recorded IC50 (compound CC(C)Nc1ccc2c(=O)[nH]c(CSC3CCOCC3)nc2c1 ): < 1000 nM

The compound listed as Cc1cccc2c(=O)[nH]c(CS[C@H]3CC[C@H](CC(N)=O)CC3)nc12 shows IC50 equal to < 1000 nM
